Please provide measured recombinant barcode read abundance (log10) for the entries that follow.
assay: recombinant barcode read abundance after kanamycin selection (control-corrected) (log10(CPM+1)); higher = more efficient recombination; sequences stand for … in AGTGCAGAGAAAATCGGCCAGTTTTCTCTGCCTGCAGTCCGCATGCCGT…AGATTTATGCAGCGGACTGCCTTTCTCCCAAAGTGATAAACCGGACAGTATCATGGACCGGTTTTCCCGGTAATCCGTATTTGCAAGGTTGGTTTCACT; site = the 11-nt target;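 also: IS621 recombinase and bridge RNA in Escherichia coli cells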
Form: value (number only, do not type unit).

Entry CAGAGCACTTGGGTTCTAACCTGTTGCCT (site GAGAGCACTAG) : reported recombinant barcode read abundance (log10) = ?
0.185

Entry CGAGTCCCTTGGGTTCTAACCTGTTGCAG (site ATCTAAACTAG) : reported recombinant barcode read abundance (log10) = ?
0.137

Entry CTCTAGACTTGGGTTCTAACCTGTTGCCT (site CTATAGACTTG) : reported recombinant barcode read abundance (log10) = ?
0.00655

Entry CTCGGAACTTGGGTTCTAACCTGTTGCCT (site CTCGGAGCTAG) : reported recombinant barcode read abundance (log10) = ?
0.325

Entry ATATGAGCTTGGGTTCTAACCTGTTGCTT (site ATATGAGCTAA) : reported recombinant barcode read abundance (log10) = ?
0.283

Entry GGCAGGTCTTGGGTTCTAACCTGTTGCTT (site GGCAGCTCTAA) : reported recombinant barcode read abundance (log10) = ?
0.0728

Entry TGACATGCTTGGGTTCTAACCTGTTGCCT (site TGAGATGCTAG) : reported recombinant barcode read abundance (log10) = ?
0.0442

Entry TAGCATACTTGGGTTCTAACCTGTTGCCG (site TAGCATACTGG) : reported recombinant barcode read abundance (log10) = ?
0.06

Entry AGAGCTCCTTGGGTTCTAACCTGTTGCCG (site AGAGCTCCTCG) : reported recombinant barcode read abundance (log10) = ?
1.03

Entry TGACGTCCTTGGGTTCTAACCTGTTGCTT (site TGACGTCCTAC) : reported recombinant barcode read abundance (log10) = ?
0.033

Entry AATGGATCTTGGGTTCTAACCTGTTGCCT (site AATGGATCTAG) : reported recombinant barcode read abundance (log10) = ?
1.01

Entry CCGTCACCTTGGGTTCTAACCTGTTGCCT (site CCGTCACCTAG) : reported recombinant barcode read abundance (log10) = ?
1.29

Entry CTCCATACTTGGGTTCTAACCTGTTGCCT (site CTCCATCCTAG) : reported recombinant barcode read abundance (log10) = ?
0.0983

Entry CCGCAGACTTGGGTTCTAACCTGTTGCTT (site CCGCGGACTAA) : reported recombinant barcode read abundance (log10) = ?
0.013

Entry CAGGACCCTTGGGTTCTAACCTGTTGCCT (site CACGACCCTAG) : reported recombinant barcode read abundance (log10) = ?
0.437

Entry TGACGTCCTTGGGTTCTAACCTGTTGCTT (site TGACGTCCTAA) : reported recombinant barcode read abundance (log10) = ?
0.293

Entry CGGAAGCCTTGGGTTCTAACCTGTTGCCT (site CGGAAGACTAG) : reported recombinant barcode read abundance (log10) = ?
0.0744

Entry CTGTAGCCTTGGGTTCTAACCTGTTGCTG (site CTGTAGGCTTA) : reported recombinant barcode read abundance (log10) = ?
0.0376

Entry GGCAAGACTTGGGTTCTAACCTGTTGCCT (site GGCAAGACTAG) : reported recombinant barcode read abundance (log10) = ?
0.185

Entry CTGAGTTCTTGGGTTCTAACCTGTTGCCA (site CTGAGTTCTTG) : reported recombinant barcode read abundance (log10) = ?
0.0274

Entry TAGTACTCTTGGGTTCTAACCTGTTGCTA (site TAGTACTCTTA) : reported recombinant barcode read abundance (log10) = ?
1.58

Origin of measurements: the supplement of paper PMC11208160
